Where do these numbers come from? They come from paper PMC7011086.

Assayed System: recombinant ERp57 (Homo sapiens)
Sequence (P30101 25-505): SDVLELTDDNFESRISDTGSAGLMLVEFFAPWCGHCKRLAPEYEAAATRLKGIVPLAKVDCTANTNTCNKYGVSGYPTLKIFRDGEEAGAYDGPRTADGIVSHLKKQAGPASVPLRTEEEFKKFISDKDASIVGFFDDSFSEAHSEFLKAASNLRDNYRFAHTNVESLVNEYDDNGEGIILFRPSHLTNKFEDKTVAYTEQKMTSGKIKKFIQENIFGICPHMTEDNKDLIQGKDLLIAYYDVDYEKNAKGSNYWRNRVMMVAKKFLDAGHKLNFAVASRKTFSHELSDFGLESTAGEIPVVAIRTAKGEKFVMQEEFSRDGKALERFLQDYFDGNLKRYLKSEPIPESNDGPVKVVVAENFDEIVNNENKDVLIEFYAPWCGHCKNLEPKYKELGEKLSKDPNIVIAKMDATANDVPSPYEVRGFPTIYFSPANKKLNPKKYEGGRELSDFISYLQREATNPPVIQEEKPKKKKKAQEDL
Method Notes: biochemical
Observation Type: pKd
The meaning of pKd here: minus log10 of the concentration in molar units.

Request: Reported pKd for recombinant ERp57 (Homo sapiens), given O=c1c(O)c(-c2cc(O)c(O)c(O)c2)oc2cc(O)cc(O)c12 [Myricetin] ?
Response: 5.74

###

Assayed System: recombinant ERp5 (Homo sapiens, UniProt Q15084)
Sequence (Q15084 20-440): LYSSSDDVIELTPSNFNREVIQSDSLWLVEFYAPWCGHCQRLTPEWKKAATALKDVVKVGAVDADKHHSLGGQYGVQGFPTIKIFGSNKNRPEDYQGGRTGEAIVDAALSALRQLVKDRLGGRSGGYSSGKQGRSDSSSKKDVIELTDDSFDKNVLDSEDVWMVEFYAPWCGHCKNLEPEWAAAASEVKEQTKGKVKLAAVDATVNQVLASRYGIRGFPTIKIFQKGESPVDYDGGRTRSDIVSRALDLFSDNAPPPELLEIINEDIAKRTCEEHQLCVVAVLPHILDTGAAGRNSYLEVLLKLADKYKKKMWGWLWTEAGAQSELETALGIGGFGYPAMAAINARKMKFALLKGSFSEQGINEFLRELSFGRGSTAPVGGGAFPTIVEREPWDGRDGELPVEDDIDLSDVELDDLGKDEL
Method Notes: biochemical
Observation Type: pKd
Please note pKd is a logarithmic value: minus log10 of concentration in mol/L. Answer with that number alone.

Request: Request - read-out pKd | tested on recombinant ERp5 (Homo sapiens, UniProt Q15084) | compound O=c1c(O)c(-c2cc(O)c(O)c(O)c2)oc2cc(O)cc(O)c12 [Myricetin]
Response: 5.76

###

Assayed System: recombinant ERp72 (Homo sapiens)
Sequence (P13667 21-645): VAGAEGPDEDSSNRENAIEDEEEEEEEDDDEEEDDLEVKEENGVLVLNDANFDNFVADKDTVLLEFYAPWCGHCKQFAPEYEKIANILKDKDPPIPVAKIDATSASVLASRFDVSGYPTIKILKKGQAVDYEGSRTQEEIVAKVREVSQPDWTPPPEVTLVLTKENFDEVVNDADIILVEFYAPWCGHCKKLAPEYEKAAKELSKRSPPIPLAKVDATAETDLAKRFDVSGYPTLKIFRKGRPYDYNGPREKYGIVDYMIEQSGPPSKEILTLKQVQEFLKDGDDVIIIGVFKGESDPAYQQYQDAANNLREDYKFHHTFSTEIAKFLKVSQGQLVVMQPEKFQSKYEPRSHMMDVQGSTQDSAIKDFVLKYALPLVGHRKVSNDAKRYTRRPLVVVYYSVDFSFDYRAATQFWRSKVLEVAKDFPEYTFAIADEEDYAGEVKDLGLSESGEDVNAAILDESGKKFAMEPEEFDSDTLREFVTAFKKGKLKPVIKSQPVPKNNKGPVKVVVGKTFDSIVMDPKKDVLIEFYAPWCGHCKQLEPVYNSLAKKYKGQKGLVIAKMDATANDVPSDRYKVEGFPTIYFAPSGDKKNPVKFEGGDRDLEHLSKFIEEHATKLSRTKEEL
Method Notes: Protein fluorescence quenching, ERp72
Condition Parameters: read-out: K d (dissociation constant)
Observation Type: Kd

Request: Which value of Kd has been reported for O=c1c(O)c(-c2cc(O)c(O)c(O)c2)oc2cc(O)cc(O)c12 in the records?
Response: 2530 nM

###

Assayed System: recombinant PDI (Homo sapiens, UniProt P07237)
Sequence (P07237 18-508): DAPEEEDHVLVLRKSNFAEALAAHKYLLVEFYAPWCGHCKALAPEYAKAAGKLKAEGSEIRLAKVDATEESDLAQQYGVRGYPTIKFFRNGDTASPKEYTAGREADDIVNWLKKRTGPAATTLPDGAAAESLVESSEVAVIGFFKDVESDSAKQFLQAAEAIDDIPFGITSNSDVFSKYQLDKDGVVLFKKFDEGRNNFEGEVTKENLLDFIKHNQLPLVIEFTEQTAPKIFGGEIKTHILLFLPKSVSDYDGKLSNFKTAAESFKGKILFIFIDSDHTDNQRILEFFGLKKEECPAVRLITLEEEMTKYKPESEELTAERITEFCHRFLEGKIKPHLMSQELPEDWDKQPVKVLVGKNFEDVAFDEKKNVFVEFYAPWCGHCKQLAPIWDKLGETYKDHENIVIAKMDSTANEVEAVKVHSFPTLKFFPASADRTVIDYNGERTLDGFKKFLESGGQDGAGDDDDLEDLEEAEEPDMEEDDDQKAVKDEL
Method Notes: biochemical
Observation Type: Kd (µM)
Give the value in µM but do not write µM after it.

Request: Give the measured Kd of O=c1c(O)c(-c2cc(O)c(O)c(O)c2)oc2cc(O)cc(O)c12 .
Response: 4.26
